Kindly state IC50 for each of the entries shown.
target: DPP-IV (Homo sapiens, UniProt P27487)
Sequence (P27487 whole entry, species assumed): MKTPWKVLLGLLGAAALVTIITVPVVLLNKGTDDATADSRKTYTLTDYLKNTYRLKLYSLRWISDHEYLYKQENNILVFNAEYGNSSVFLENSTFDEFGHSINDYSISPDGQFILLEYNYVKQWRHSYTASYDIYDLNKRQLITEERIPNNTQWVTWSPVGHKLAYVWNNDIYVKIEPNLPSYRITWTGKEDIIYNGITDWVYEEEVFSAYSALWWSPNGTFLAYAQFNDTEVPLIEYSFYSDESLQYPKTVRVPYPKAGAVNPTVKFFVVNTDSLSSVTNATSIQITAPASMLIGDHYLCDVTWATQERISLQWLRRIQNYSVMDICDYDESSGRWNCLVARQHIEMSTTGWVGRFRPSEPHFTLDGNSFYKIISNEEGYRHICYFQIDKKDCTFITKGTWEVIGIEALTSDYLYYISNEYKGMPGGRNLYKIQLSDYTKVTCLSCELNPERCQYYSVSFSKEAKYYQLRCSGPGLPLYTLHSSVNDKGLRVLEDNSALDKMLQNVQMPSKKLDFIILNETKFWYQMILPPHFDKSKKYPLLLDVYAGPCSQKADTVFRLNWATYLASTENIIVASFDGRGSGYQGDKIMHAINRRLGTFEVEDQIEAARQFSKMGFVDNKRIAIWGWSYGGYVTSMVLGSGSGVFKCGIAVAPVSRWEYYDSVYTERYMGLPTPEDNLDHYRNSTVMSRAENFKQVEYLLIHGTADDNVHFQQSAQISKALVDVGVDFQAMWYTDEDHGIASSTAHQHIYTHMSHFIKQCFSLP
Please report the result as a number followed by the unit.

Consider the compound Cc1cc(N2CC[C@@H](N)C2)c2c(n1)n(C)c(=O)n2Cc1ccccc1C#N and give its measured IC50.
11.2 nM

Another compound: Cn1c(=O)n(Cc2ccccc2C#N)c2c(N3CCC[C@@H](N)C3)cc(CO)nc21
13.5 nM

// next record Cn1c(=O)n(Cc2ccccc2C#N)c2c(N3CCC[C@@H](N)C3)cc(C(=O)O)nc21
7.9 nM

Now give it for CN(C)c1cc(N2CCC[C@@H](N)C2)c2c(n1)n(C)c(=O)n2Cc1ccccc1C#N too.
22.9 nM

And what about the compound Cc1cc(N2CCC[C@@H](N)C2)c2c(n1)n(C)c(=O)n2Cc1ccccc1C#N ?
8.9 nM

Please give the result for CCn1c(=O)n(Cc2ccccc2C#N)c2c(N3CCC[C@@H](N)C3)cc(C)nc21 too.
56.9 nM
